system: M14 melanoma; experiment: NCI-60 one-dose screen, 48 h (100 = growth as untreated, 0 = no growth, -100 = all killed); settings: 10 µM unless noted
This is part of a sample that, as a whole, favours compounds with a hit. Of some 83,000 tested, about 20% had one in any assay.
Metric name: growth (%)
Your answer should be a plain number; it is taken to be in %.

Kindly indicate its recorded growth. Item: CCOC(=O)c1ccccc1C(=O)OCC
103

For the compound Cc1c(C)c(N)c(C)c(C)c1N , report growth.
98.7

For the compound C[C@]12CCc3sc(Nc4ccc(O)cc4)nc3C1=CC[C@@H]1[C@@H]2CC[C@]2(C)C(=O)CC[C@@H]12 , give its reported growth.
58.1

State, in one line, measured growth of CC/C(=C(\c1ccc(OCCN2CCOCC2)cc1)c1ccc(OC(=O)Cc2ccccc2)cc1)c1ccc(Cl)cc1
102

Please indicate growth recorded for Cc1ccc(N2CCN(CCC#N)CC2)cc1
98.6

Note down growth recorded for O=c1[nH]c(=O)[nH]c(=O)[nH]1
111

====

tested on: RXF 393 renal; test: NCI-60 one-dose screen, 48 h; conditions: 10 µM unless noted
The panel holds about 83,000 compounds, 20% with a hit somewhere; the sample as a whole holds those more often. The source made the active and inactive calls. The calls were made as follows: active = growth percent below 10; inactive = the rest.
The reply should be one of these categories: y = active, n = inactive

>>> class_name("COc1c(O)cc2c(c1OC)-c1ccc(SC)c(=O)cc1C(NC(C)=O)CC2 (stereo not given)")
"n"
>>> class_name("CC1(C)N(Nc2ccccc2)C(=O)C2CCCN21 (stereo not given)")
"n"
>>> class_name("O=C(O)C(F)F")
"n"
>>> class_name("Oc1ccccc1C=NCCN=Cc1ccccc1O")
"n"
>>> class_name("CCOP(=O)(NC)OCC")
"n"
>>> class_name("COc1ccn(C)c(=O)c1C#N")
"n"
>>> class_name("O=[N+]([O-])c1ccc(OCc2ccc(S(=O)(=O)F)c(Cl)c2)c(Cl)c1")
"n"
>>> class_name("CO[C@@H]([CH2][Hg][O]C(=O)c1ccccc1)[C@@H]([CH2][Hg][O]C(=O)c1ccccc1)OC")
"n"
>>> class_name("CC(=O)Nc1nc2c(s1)C1=CC[C@H]3[C@@H]4CC[C@H](OC(C)=O)[C@@]4(C)CC[C@@H]3[C@@]1(C)CC2")
"y"

Now look at this one.
Which outcome was assigned to C[C@@]12CCCc3coc(c31)C(=O)c1cc3c(cc12)C(=O)C1=C(NCCS1(=O)=O)C3=O in this test?
y

====

test system: CCRF-CEM leukemia; test: NCI-60 one-dose screen, 48 h (100 = growth as untreated, 0 = no growth, -100 = all killed); settings: 10 µM unless noted
This is part of a sample that, as a whole, favours compounds with a hit. Of some 83,000 tested, about 20% had one in any assay.
Metric name: growth (%)
Kindly provide the numeric value in % only, without the unit symbol.

Fill in reported growth for this entry: O=[N+]([O-])c1ccc(OCc2ccc(S(=O)(=O)F)c(Cl)c2)c(Cl)c1
87.9

Kindly indicate its recorded growth. Item: Cc1c(C)c(N)c(C)c(C)c1N
91.8

Return growth (reported value) for this compound: Oc1ccccc1C=NCCN=Cc1ccccc1O
90
